conditions: 100.0 µM
reported.property: relative solubility at 100 uM

Reference set (3 entries):
{"compound": "CCC(C)CC(=O)N1CCCC(NC(=O)Cn2c(C)cc(C)nc2=O)CC1 (stereo not given)", "relative solubility at 100 uM": 1}
{"compound": "O=C1N(Cc2cccc(Cl)c2)CCN1c1nccc2n[nH]cc12", "relative solubility at 100 uM": 0.93}
{"compound": "O=C(Nc1nncn1C1CC1)C1CCOc2ccc(Cl)cc21 (stereo not given)", "relative solubility at 100 uM": 1}

**Q:** Fill in: relative solubility at 100 uM of `N#Cc1ncccc1NC(=O)Cc1cccc(Cl)c1` is ___
**A:** 1

**Q:** Returns the measured relative solubility at 100 uM for the input compound. Input: `Cc1ccncc1NC(=O)CCOC1CC1`
**A:** 1

**Q:** Endpoint output: relative solubility at 100 uM of `CC(=O)N1CCN(S(=O)(=O)c2ccsc2)CC1` . Value?
**A:** 1

**Q:** So what's the measured relative solubility at 100 uM for this one? Cc1noc(CC(NC(=O)C(C)Cn2ccnc2)c2ccccc2)n1 (stereo not given)
**A:** 1

**Q:** Entry `Cc1ccncc1NC(=O)CN1C(=O)COc2ccc(Cl)cc21` : reported relative solubility at 100 uM = ?
**A:** 0.99

**Q:** What value of relative solubility at 100 uM has been reported for the following compound? `NS(=O)(=O)c1ccc(N2CCC(c3ccsc3)CC2)cc1`
**A:** 0.76

**Q:** Name the reported relative solubility at 100 uM value associated with the compound `COc1ccc2[nH]cc(CCNC(C)=O)c2c1`
**A:** 0.99

**Q:** Which relative solubility at 100 uM value belongs to CC(OCC1CCCCO1)C(=O)N(CCc1ccccc1)Cc1cccnc1 (stereo not given) ?
**A:** 1

----------
Measured relative solubility at 100 uM values are reported for all entries that follow.
settings: 100.0 µM
The reply should be a number, written without any unit.

{"compound": "O=C(Nc1cccnc1)Nc1ccc(Cl)s1", "relative solubility at 100 uM": 0.95}
{"compound": "O=C(C1CCCN1C(=O)c1ccccc1)N1CCOCC1 (centres undefined)", "relative solubility at 100 uM": 1}
{"compound": "C=CC(=O)N(c1ccc(N(C)C)c(C)c1)C(C(=O)Nc1ccccc1Br)c1cccnc1 (centres undefined)", "relative solubility at 100 uM": 0.79}
{"compound": "CCC(=O)O[C@@H](OP(=O)(CCCCc1ccccc1)CC(=O)N1C[C@H](C2CCCCC2)C[C@H]1C(=O)O)C(C)C (stereo in doubt)", "relative solubility at 100 uM": 0.92}
{"compound": "C=CC(=O)N(c1ccc(C(C)(C)C)cc1)C(C(=O)NC1CCC1)c1cccnc1 (centres undefined)", "relative solubility at 100 uM": 1}
{"compound": "C=CC(=O)N(c1cc(C(C)(C)C)on1)C(C(=O)Nc1ccc(OC)cc1C)c1cccnc1 (centres undefined)", "relative solubility at 100 uM": 0.91}
{"compound": "COc1ccnc(NC(=O)Cc2ccc3ccccc3c2)c1", "relative solubility at 100 uM": 0.91}
{"compound": "C=CC(=O)N(c1ccc(C(C)(C)C)cc1)C(C(=O)N[C@H]1CC[C@@H](C(=O)OC)C1)c1cccnc1 (stereo in doubt)", "relative solubility at 100 uM": 0.98}
{"compound": "Cc1cccc(CS(=O)(=O)N2CCC(C(N)=O)CC2)c1", "relative solubility at 100 uM": 1.01}
{"compound": "Cc1ccc(NCc2cc(NC(=O)OC(C)(C)C)ccc2Br)cn1", "relative solubility at 100 uM": 0.7}

**Q:** Request the reported relative solubility at 100 uM associated with `CNS(=O)(=O)Cc1ccc2[nH]cc(CCN(C)C)c2c1`
**A:** 1

**Q:** I have this compound here, `CCCN(C(=O)Cc1cccc(Cl)c1)c1cccnc1` , and I need its recorded relative solubility at 100 uM.
**A:** 1

----------
Reported inhibition by item:
target: SARS-CoV-2 Main Protease (SARS-CoV-2) (UniProt P0DTD1); settings: 50.0 µM
Please append the unit to your numeric answer.

{"molecule": "O=C(NCc1cccnn1)NC(Cc1ccccc1)c1cccs1 (configuration not stated)", "inhibition": "13.9%"}
{"molecule": "CC(C)(C)c1ccc(N(C(=O)c2cccnc2)C(C(=O)NCCc2cccc(F)c2)c2cccnc2)cc1 (configuration not stated)", "inhibition": "-6.34%"}
{"molecule": "C=CC(=O)N(c1ccc(C(C)(C)C)cc1)C(C(=O)NC1CCOCC1)c1cccnc1 (configuration not stated)", "inhibition": "0.668%"}
{"molecule": "CCN(Cc1cccc(-c2ccncc2)c1)C(=O)Cc1noc2ccccc12", "inhibition": "-15.8%"}
{"molecule": "O=C(C1CCN(c2ccncc2)CC1)N1CCOCC1", "inhibition": "-22.6%"}

**Q:** Data request, read-out inhibition, for `CS(=O)(=O)Cc1ccc(C(=O)Nc2cccnc2)o1`
**A:** 6.26%

**Q:** # query: inhibition of entry C=CC(=O)N(c1ccc(S(F)(F)(F)(F)F)cc1)C(C(=O)NC(C)(C)C)c1cccnc1 (configuration not stated)
**A:** 23%

----------
conditions: 20.0 µM
Reported relative solubility at 20 uM values follow for various molecules
Enter a number only.

Sample answers from the record:
{"molecule": "C=CC(=O)N(c1ccc(C2(C)CC2)cc1)C(C(=O)Nc1ccc(OC)cc1)c1cccnc1 (centres undefined)", "reported.measurement": 0.96}
{"molecule": "NS(=O)(=O)c1ccc(N2CCC(N3CCCCCC3)CC2)cc1", "reported.measurement": 1}

**Q:** Quick check: relative solubility at 20 uM of C=CC(=O)N(c1ccc(C(C)(C)C)cc1)C(C(=O)NC(C)(C)C)c1cncc(Cl)c1 (centres undefined) ?
**A:** 0.99

**Q:** relative solubility at 20 uM lookup needed for `Cc1ccncc1NC(=O)CCNC(=O)c1ccccc1F` , thanks.
**A:** 1

**Q:** Looking for the measured relative solubility at 20 uM of `N#Cc1ncccc1NC(=O)Cc1cccc(Cl)c1` , can you help?
**A:** 0.99

----------
target: SARS-CoV-2 Main Protease (SARS-CoV-2); conditions: 50.0 µM
reported.property: inhibition (%)
Numeric answer only, unit % assumed.

**Q:** # get_value(readout='inhibition', item= `Cc1cc(C)c(C)c(S(=O)(=O)N2CCN(C(=O)c3cc(=O)[nH]c4ccccc34)CC2)c1C` )
**A:** 88.1

**Q:** Any idea what its inhibition is? The compound is Cc1ccnn1CC(=O)NCC(NC(=O)C(C)C#N)c1ccccc1 (stereo not drawn)
**A:** -26.1

**Q:** Name the recorded inhibition for C/C=C/C(=O)Nc1cccc(OC2CC(=O)N2)c1 (stereo not drawn) .
**A:** 0

----------
details: 20.0 µM
Property: relative solubility at 20 uM; scope: individual molecules
Could you keep your reply to the number by itself?

// known answers, use as guide
{"molecule": "O=C(Cc1cncnc1)Nc1cc(F)cc(OC2CC(=O)N2)c1 (stereo not drawn)", "relative solubility at 20 uM": 0.99}
{"molecule": "CCN(Cc1cccc(-c2ccncc2)c1)C(=O)Cc1noc2ccccc12", "relative solubility at 20 uM": 0.98}

**Q:** Would you kindly share the measured relative solubility at 20 uM for O=C(CCl)N1CCCC(N(CC2CCCCC2)C2CCC(O)CC2)C1 (stereo not drawn) ?
**A:** 1

----------
Consider the following compounds and their measured inhibition readings.
biological target: SARS-CoV-2 Main Protease (SARS-CoV-2) (UniProt P0DTD1); settings: 20.0 µM
Note: unit % is implicit; provide only the numeric part.

Examples from the recorded data:
{"compound": "C=CC(=O)N1CCN(Cc2cccc3ccccc23)CC1", "system.tested": "SARS-CoV-2 Main Protease (SARS-CoV-2) (UniProt P0DTD1)", "reported.measurement": -4.32}
{"compound": "O=C(Cc1ccc2[nH]c(=O)[nH]c2c1)NC1(CNC(=O)c2cnc[nH]2)CC1", "system.tested": "SARS-CoV-2 Main Protease (SARS-CoV-2) (UniProt P0DTD1)", "reported.measurement": 6.85}
{"compound": "COc1ccccc1OCCN(C)C(=O)c1cc(=O)[nH]c2cc(F)ccc12", "system.tested": "SARS-CoV-2 Main Protease (SARS-CoV-2) (UniProt P0DTD1)", "reported.measurement": -3.47}
{"compound": "O=C(CCl)N1CCN(S(=O)(=O)c2c(F)cccc2F)CC1", "system.tested": "SARS-CoV-2 Main Protease (SARS-CoV-2) (UniProt P0DTD1)", "reported.measurement": 98.7}
{"compound": "Cc1nnc(CC(=O)Nc2cccnc2)s1", "system.tested": "SARS-CoV-2 Main Protease (SARS-CoV-2) (UniProt P0DTD1)", "reported.measurement": -1.16}
{"compound": "O=C(Cc1ccc(O)cc1)Nc1cccc2cc[nH]c12", "system.tested": "SARS-CoV-2 Main Protease (SARS-CoV-2) (UniProt P0DTD1)", "reported.measurement": -9.57}
{"compound": "CC(C)(Cn1c(C2CCC(=O)N2)nnc1N1CCCC(C(N)=O)C1)c1ccccc1F (stereo not given)", "system.tested": "SARS-CoV-2 Main Protease (SARS-CoV-2) (UniProt P0DTD1)", "reported.measurement": -2.8}
{"compound": "CC(C)Cn1cc(NC(=O)NCC2CCCO2)c2ccccc2c1=O (stereo not given)", "system.tested": "SARS-CoV-2 Main Protease (SARS-CoV-2) (UniProt P0DTD1)", "reported.measurement": -0.42}

Could you now consider this next compound?
**Q:** Data request, read-out inhibition, for `Cn1cc(NC(=O)N2CCN(C(=O)c3ccco3)CC2)c2ccccc2c1=O`
**A:** -4.83
